test system: K-562 leukemia; experiment: NCI tumour cell line growth inhibition, 48 h
Readings of TGI for the listed molecules

- MOLECULE: "Cc1ccc(NC(=O)c2cccc(C(C)(C)C#N)c2)cc1Nc1ccc2ncn(C)c(=O)c2c1"
  READOUT_LABEL: "TGI"
  MEASURED: "> 79.3 µM"
- MOLECULE: "O=Cc1ccccc1COC(=O)c1cc(C(=O)OCc2ccccc2C=O)c(C(=O)OCc2ccccc2C=O)cc1C(=O)OCc1ccccc1C=O"
  READOUT_LABEL: "TGI"
  MEASURED: "> 100 µM"
- MOLECULE: "CCCCCCc1cc(C(=O)Nc2ccc(Cl)cc2)nc(=S)[nH]1"
  READOUT_LABEL: "TGI"
  MEASURED: "> 100 µM"

# context switch: different molecule, same TGI
CCCC1=C(CC)C(C(=O)Nc2c(C)cccc2C)=NC(S)N1 (stereo not drawn) yielded TGI of > 100 µM

###

test system: UO-31 renal; experiment: NCI tumour cell line growth inhibition, 48 h; in the data active = GI50 below about 0.43 µM; inactive = the rest
Assign a class; possible classes are T (active), F (inactive)

Known results for molecules:
- STRUCTURE: "COc1ccc(/C=C/c2c(C(=O)/C=C/c3ccccc3)c(C)nc3ccccc23)cc1"
  DISCRETE_LABEL: "F"
- STRUCTURE: "Nc1ccccc1C#C/C=C\\C#Cc1ccccc1N"
  DISCRETE_LABEL: "F"
- STRUCTURE: "C=CCCCCC/C=C\\[C@@H](O)C#CC#C/C=C/CO"
  DISCRETE_LABEL: "F"
- STRUCTURE: "COc1cc2c(cc1OCCCCC(=O)Nc1cc3c4ccccc4ccc3c3ccccc13)N=C[C@@H]1CCCN1C2=O"
  DISCRETE_LABEL: "F"

Exercise: Please let me know the test result on file for C=C1C(=O)O[C@H]2[C@H]1CC/C(COC(=O)NCCCCNC(=O)OC/C1=C/CC[C@@]3(C)O[C@H]3[C@H]3OC(=O)C(=C)[C@@H]3CC1)=C\CC[C@@]1(C)O[C@@H]21 .
Solution: F

Exercise: Called result for COc1ccc(-c2[nH]c3ccc(OC)cc3c2/C=C(\C#N)S(=O)(=O)c2ccccc2)cc1
Solution: F

Exercise: Recorded test call requested for CCc1nc2cc(F)c(/C=C/C(=O)NO)cc2c(=O)n1CCc1ccccc1
Solution: T

Exercise: Call for entry S=c1ssc(N2CCOCC2)c1Cl :
Solution: F

Exercise: Recorded call for NS(=O)(=O)c1ccc(-c2ccc3c(NC(=O)C4CC4)n[nH]c3c2)cc1 ?
Solution: F

Exercise: Fill in: this test's call for O=S(=O)(c1ccc(NC(=S)NC23CC4CC(CC(C4)C2)C3)cc1)N1CCCCC1 is ___
Solution: F

Exercise: Lab log entry: O=C1/C(=C(/c2ccccc2)N2CCOCC2)Cc2ccccc21 — outcome as called in the assay?
Solution: F

Exercise: Test call, this molecule: COc1c(C(=O)/C=C/c2ccccc2)c(O)cc2occc12
Solution: F

Exercise: Dear colleague, could you share the recorded outcome for C/C(=N\Nc1ccc(Cl)cn1)c1ccc2ccccc2n1 when you have a moment?
Solution: F

Exercise: Record request — test call for COc1cc2c3c(n(CCCN)c(=O)c2cc1OC)-c1ccc(C#N)cc1C3=O
Solution: F

Exercise: # outcome recorded in this test, key = Cc1ccc(NC(=O)c2cccc(C(C)(C)C#N)c2)cc1Nc1ccc2ncn(C)c(=O)c2c1
Solution: F

###

test system: LXFL 529 NSCLC; experiment: NCI tumour cell line growth inhibition, 48 h
READOUT_LABEL: TGI (µM)
Give your result in µM as a bare value.

- MOLECULE: "COC(=O)[C@@]12C(=O)C=CC(=O)C1C1C(=CC2C)OC2OC3(CCCCC3)OC21 (stereo not given in full)"
  ASSAYED_SYSTEM: "LXFL 529 NSCLC"
  TGI / µM: 26.3

Now look at this entry.
The recorded TGI for CN(C)CCC1(C2=CCCC2)CC/C(=C\c2ccc(Cl)cc2)C1=O (stereo not given) is 21.4

###

tested on: HCC-2998 colon; assay: NCI tumour cell line growth inhibition, 48 h
compounds and their reported TGI

Use these answered entries as a reference point.
- COMPOUND: "CCc1cc(Cc2cc(CC)c(NC(=O)C(=O)CC(=O)c3sc(-c4cccnc4)nc3C)c(CC)c2)cc(CC)c1NC(=O)C(=O)CC(=O)c1sc(-c2cccnc2)nc1C"
  TGI: "> 100 µM"
- COMPOUND: "COc1ccccc1CNCCCN1C(=O)c2ccc3c4c(ccc(c24)C1=O)C(=O)N(CCCNCCNCCCN)C3=O"
  TGI: "10.3 µM"

Query OCC1OC(n2cnc3c2NC=NC[C@H]3O)C(Cl)C1O (some centres undefined) yields TGI of > 100 µM

The reported TGI of the compound O=C(Nc1n[nH]c2cc(-c3ccccc3)ccc12)C1CC1 was > 25 µM

TGI reported for this compound O=C(CC(=O)n1nc(-c2ccccc2)c(N=Nc2ccc(Cl)cc2)c1-c1ccccc1)Nc1ccc(Cl)cc1 : > 100 µM

###

test system: NCI-H226 lung; test: NCI tumour cell line growth inhibition, 48 h; in the data active means GI50 below about 0.43 µM; inactive means the rest
Permitted responses: active, inactive

- MOLECULE: "N#Cc1cc(-c2cc3ccccc3o2)oc1N"
  DISCRETE_LABEL: "inactive"
- MOLECULE: "COc1ccccc1CNCCCN1C(=O)c2ccc3c4c(ccc(c24)C1=O)C(=O)N(CCCNCCNCCCN)C3=O"
  DISCRETE_LABEL: "inactive"
- MOLECULE: "CCOC(=O)C1CCN(S(=O)(=O)/N=C2/NC(=O)NC2=C(Cl)Cl)CC1"
  DISCRETE_LABEL: "inactive"

Exercise: Answer briefly: the call reported for C=C1C(=O)O[C@H]2[C@H]1CC/C(COC(=O)NCCCCNC(=O)OC/C1=C/CC[C@@]3(C)O[C@H]3[C@H]3OC(=O)C(=C)[C@@H]3CC1)=C\CC[C@@]1(C)O[C@@H]21 in this assay.
Solution: inactive

Exercise: Record request — test call for c1ccc(Sc2ccc(Cc3nc4cc5ccccc5cc4[nH]3)cc2)cc1
Solution: inactive

###

system: SF-295 CNS; experiment: NCI tumour cell line growth inhibition, 48 h
READOUT_LABEL: TGI

- MOLECULE: "COc1ccc(C(=O)c2cc(OC)c(OC)c(OC)c2)cc1/C=C/C(=O)c1ccc(F)cc1"
  TGI: "37.3 µM"
- MOLECULE: "CCCCC(CC)COC(=O)C[N+](C)(C)CCOC(c1ccccc1)c1ccccc1 (stereo not given)"
  TGI: "26.3 µM"
- MOLECULE: "Nc1nc(Nc2cccnc2)sc1C(=O)c1ccccc1F"
  TGI: "> 26.9 µM"
- MOLECULE: "CN=C(SC)N(C)c1nc(=[N+](C)C)ss1"
  TGI: "> 100 µM"

# TGI of COc1ccc(C[N+](C)(C)N)cc1OC = > 100 µM

Entry under test: CC1(C)C(=O)/C(=C\c2cccnc2)C[C@]2(C)[C@H]3CC[C@@H]4[C@H]5[C@H](C(=O)/C=C/c6cccnc6)CC[C@]5(C(=O)O)CC[C@@]4(C)[C@]3(C)CC[C@@H]12 . Its TGI was 5.59 µM

Entry Clc1ccc(-c2cc3nc4ccccc4nc3o2)cc1 — recorded TGI = > 100 µM

Briefly, TGI measured for CC1=C(/C=C/Cl)CC(Cl)C(C)(Cl)C1 (stereo not given) : > 100 µM

###

tested on: CCRF-CEM leukemia; test: NCI tumour cell line growth inhibition, 48 h
Catalogue of TGI readings, one per entry.

- COMPOUND: "c1cnn(CN(Cn2cccn2)Cn2cccn2)c1"
  TGI: "> 100 µM"
- COMPOUND: "CC1(C)C[C@@H]2C1CCC1(C)CC2(O)CC[C@H]1O (some centres not stated)"
  TGI: "> 100 µM"

So for Nc1ccc(Cc2c(N)[nH]c(=O)[nH]c2=O)cc1 , the logged TGI turned out to be > 100 µM

// TGI value for COc1cc(/C=C/c2ccc(OC)c(O)c2)cc(OC)c1 : 15.2 µM

Entry COc1ccc(C(=O)c2cc(C)c(OC)c(C)c2)cc1OC(=O)CCl ; TGI = > 100 µM

TGI recorded for this compound, CCC(C)NC1=NCC(C)S1 (configuration not stated) , is > 100 µM

For record O=C(N/N=C/c1cc(Br)ccc1O)N/N=C/c1cc(Br)ccc1O the listed TGI is > 100 µM

Measured TGI of Nc1ccccc1/C(O)=C1/CCOC1=O : > 100 µM

So, O=c1cc(-c2ccc(Oc3ccccc3)cc2)[nH]c2cc3c(cc12)OCO3 ? Its TGI was > 100 µM

###

test system: DLD-1 colon; test: NCI tumour cell line growth inhibition, 48 h
READOUT_LABEL: TGI

Worked cases, TGI given:
- COMPOUND: "CN(C)CCC1(C2=CCCC2)CC/C(=C\\c2ccc(Cl)cc2)C1=O (centres undefined)"
  READOUT_LABEL: "TGI"
  MEASURED: "20.6 µM"
- COMPOUND: "CNC(=S)/N=C(\\N)N(C)C"
  READOUT_LABEL: "TGI"
  MEASURED: "> 100 µM"
- COMPOUND: "CC(=O)O[C@H]1C(=O)[C@@]2(C)C(C(OC(=O)c3ccccc3)[C@]3(O)CC(OC(=O)C(O)C(NC(=O)c4ccc(C(F)(F)F)cc4)c4ccccc4)C(C)=C1C3(C)C)[C@]1(OC(C)=O)CO[C@@H]1C[C@@H]2O (some centres undefined)"
  READOUT_LABEL: "TGI"
  MEASURED: "28.9 µM"
- COMPOUND: "COC(=O)C(CC(=O)Nc1ccc(C)cc1)C(=O)C(=O)Nc1c(C(C)C)cccc1C(C)C (centres undefined)"
  READOUT_LABEL: "TGI"
  MEASURED: "> 100 µM"
- COMPOUND: "O=C(CCc1nc(=S)[nH][nH]1)Nc1ccccc1Cl"
  READOUT_LABEL: "TGI"
  MEASURED: "> 100 µM"

compound c1cnn(CN(Cn2cccn2)Cn2cccn2)c1 , TGI observed: > 100 µM

Reported TGI for CN(Cc1ccccc1)C(=O)c1ccccc1C(=O)O was > 100 µM

# TGI (compound: Cc1cc(N(CCC#N)CCC#N)ccc1/C=C(\NC(=O)/C=C/c1ccccc1)C(N)=O ) is > 100 µM

In plain terms, CCCCCCCCCCCC(=O)OCC(C[As](=O)(O)O)OC(=O)CCCCCCCCCCC (centres undefined) has a documented TGI of 31.3 µM

TGI for CC1=CCC(O)C=CC(C)C(O)C(C)C=C(C)C(=O)c2c(O)c(C)cc3c2C(=O)C(N)=C(NC(=O)/C=C\C=C/C=CC(C)C(O)CC1=O)C3=O (centres undefined) is > 100 µM

TGI for CN(C)CC1CCCC(CN(C)C)C1OC(=O)c1ccccc1 (centres undefined) is > 100 µM

The compound identified as CCOC(=O)N[C@@H]1C(CC(=O)OC)O[C@H]2OC(C)(C)O[C@H]21 (some centres undefined) registered its TGI at > 100 µM
